Data origin, for the record: ChEMBL document CHEMBL5137033

tested on: J774.A1; assay: Cytotoxicity against mouse J774.A1 cells assessed as cell viability at 10 uM incubated for 4 hrs by MTT assay relative to control; type: toxicity, cell-based; details: j774.a1, 4 h, 10 µM
Readout label: Activity (%)
Give the value, in units of %, as a plain number.

### Prompt Please provide the recorded Activity for "C#CCN(C)S(=O)(=O)c1ccc(CCN(Cc2cc(Cl)ccc2OCCC)C(=O)Cc2ccsc2)cc1" , tested on J774.A1.
### Response 105.8

### Prompt Please provide the recorded Activity for "C#CCNS(=O)(=O)c1ccc(CCN(Cc2cc(Cl)ccc2[N+](=O)[O-])C(=O)Cc2ccsc2)cc1" , tested on J774.A1.
### Response 98.7

### Prompt Please provide the recorded Activity for "C#CCNS(=O)(=O)c1ccc(CCN(Cc2cccc3c2OCO3)C(=O)Cc2ccc(F)cc2)cc1" , tested on J774.A1.
### Response 96.8

### Prompt Please provide the recorded Activity for "CCCOc1ccc(Cl)cc1CN(CCc1ccc(S(=O)(=O)N2CCC2)cc1)C(=O)c1csc2ccccc12" , tested on J774.A1.
### Response 107

### Prompt Please provide the recorded Activity for "C#CCNS(=O)(=O)c1ccc(CCN(Cc2cc(Cl)ccc2OCCC)C(=O)c2csc3c2CCCC3)cc1" , tested on J774.A1.
### Response 93.7

### Prompt Please provide the recorded Activity for "C#CCNS(=O)(=O)c1ccc(CCN(Cc2cc(Cl)ccc2OCCC)C(=O)Cc2ccsc2)cc1" , tested on J774.A1.
### Response 106

### Prompt Please provide the recorded Activity for "C#CCNS(=O)(=O)c1ccc(CCN(Cc2cc(Cl)ccc2OCCC)C(=O)c2ccc(F)cc2)cc1" , tested on J774.A1.
### Response 96.3

### Prompt Please provide the recorded Activity for "C#CCNS(=O)(=O)c1ccc(CCN(Cc2cc(Cl)ccc2O)C(=O)Cc2ccsc2)cc1" , tested on J774.A1.
### Response 92

### Prompt Please provide the recorded Activity for "CCCOc1ccc(Cl)cc1CN(CCc1ccc(S(=O)(=O)N2CCOCC2)cc1)C(=O)Cc1ccsc1" , tested on J774.A1.
### Response 103.4

====

Would you mind telling me the reported Activity of each entry?
molecular target: Interferon-inducible protein AIM2 (Mus musculus); experiment: Inhibition of AIM2 inflammasome in LPS-primed mouse J774.A1 cells assessed as IL-1beta secretion at 10 uM preincubated for 1 hr followed by poly(dA:dT) addition and measured after 4 hrs by ELISA relative to control; type: cell-based; design: scale not given: the % may be the effect or the level left; conditions: time 5.0 hrs
Give the value, in units of %, as a plain number.

### Prompt GET /values?readout=Activity&item= "C#CCN(C)S(=O)(=O)c1ccc(CCN(Cc2cc(Cl)ccc2OCCC)C(=O)Cc2ccsc2)cc1"
### Response 108

### Prompt GET /values?readout=Activity&item= "C#CCNS(=O)(=O)c1ccc(CCN(Cc2ccco2)C(=O)Cc2ccsc2)cc1"
### Response 89.4

### Prompt GET /values?readout=Activity&item= "CCCOc1ccc(Cl)cc1CN(CCc1ccc(S(=O)(=O)N2CCC2)cc1)C(=O)Cc1ccc(F)cc1"
### Response 102

### Prompt GET /values?readout=Activity&item= "C#CCS(=O)(=O)c1ccc(CCN(Cc2cc(Cl)ccc2OCCC)C(=O)c2csc3ccccc23)cc1"
### Response 0

### Prompt GET /values?readout=Activity&item= "C#CCNS(=O)(=O)c1ccc(CCN(Cc2cc(Cl)ccc2OCCC)C(=O)Cc2csc3ccccc23)cc1"
### Response 96.7

### Prompt GET /values?readout=Activity&item= "C#CCS(=O)(=O)c1ccc(CCN(Cc2cc(Cl)ccc2OCCC)C(=O)Cc2ccsc2)cc1"
### Response 0
